# study.system: Protein kinase C beta type (Homo sapiens)
# condition.description: at 0.1 µM
# Description: GSK_PKIS: PKC-beta1 (splice variant) mean inhibition at 0.1 uM [Nanosyn]
# inhibition per entry
Response body: numeric value in %, unit text excluded.

1) CN(C)CCOc1ccc(-c2cc(-c3ccc4c(c3)CCC4=NO)c(-c3ccncc3)o2)cc1 : -1.02
2) COc1cccc(-n2cnc3c(N/N=C/c4ccncc4)ncnc32)c1 : 3.24
3) O=C(Nc1n[nH]c2nc(-c3ccc(O)cc3)c(Br)cc12)C1CC1 : 6.11
4) CN1CCN(CCCNc2nc3ccc(Oc4ccc(NC(=O)Nc5cc(C(F)(F)F)ccc5F)cc4)cc3[nH]2)CC1 : 2.13

In the following, a different compound is considered.
Problem: Please tell me the measured inhibition for c1ccc(-c2n[nH]cc2-c2ccnc(-c3ccc(OCCN4CCOCC4)cc3)c2)nc1 ; system: Protein kinase C beta type (Homo sapiens).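 Note: PKC-beta1 splice variant of the enzyme, figure reported as mean inhibition, measured within the GSK PKIS kinase profiling panel.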
Solution: 5.36
